# Experimental target: T1, human CD39 (cellular) (human, UniProt P49961 1-510)
# T1 construct: Same protein on engineered CHO cells and on cells that express it endogenously; also called hCD39; cellular CD39
# T1 sequence: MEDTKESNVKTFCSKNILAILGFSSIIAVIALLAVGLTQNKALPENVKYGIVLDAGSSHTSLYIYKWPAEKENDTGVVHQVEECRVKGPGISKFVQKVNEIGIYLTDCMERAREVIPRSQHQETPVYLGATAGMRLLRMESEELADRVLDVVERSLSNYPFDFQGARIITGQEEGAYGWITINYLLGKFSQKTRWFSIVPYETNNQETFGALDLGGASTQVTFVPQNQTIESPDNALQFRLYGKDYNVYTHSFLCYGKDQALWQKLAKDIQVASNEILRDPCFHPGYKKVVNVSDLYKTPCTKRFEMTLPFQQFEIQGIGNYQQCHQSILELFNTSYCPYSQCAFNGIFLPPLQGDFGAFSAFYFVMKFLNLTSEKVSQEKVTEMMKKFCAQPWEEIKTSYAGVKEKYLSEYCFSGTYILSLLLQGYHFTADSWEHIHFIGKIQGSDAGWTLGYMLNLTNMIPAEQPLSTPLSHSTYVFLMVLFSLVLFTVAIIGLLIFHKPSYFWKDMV
# Assay remarks: flow cytometry, 100 nM IgG, MFI on CHO-hCD39 / MFI on parental CHO;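 also: cells exposed to IgG for 30 min on ice in PBS, bound antibody then revealed with a fluorescent goat anti-human IgG secondary (20 min, on ice)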
Property label: Cell Binding (FOB) (fold over background)
Write the number in fold over background without appending the unit.

Worked set:
Binder: 29872 (antibody, V domains shown, also called anti-CD39 antibody 29872) VH: QVQLVQSGAEVKKPGASVKVSCKASGYTFKSYEMHWVRQAPGQGLEWMGRINPSVGSTWYAQKFQGRVTMTRDTSTSTVYMELSSLRSEDTAVYYCARGKREGGTEYLRHWGQGTLVTVSS VL: EIVLTQSPGTLSLSPGERATLSCRASQSVSSSYLAWYQQKPGQAPRLLIYGASSRATGIPDRFSGSGSGTDFTLTISRLEPEDFAVYYCQQYHSYITFGGGTKVEIK
Cell Binding (FOB) [fold over background]: 1450

Binder: 31393 (antibody, human IgG4 S228P, kappa, V domains shown) VH: QVQLVQSGAEVKKPGSSVKVSCKASGGTFESYGISWVRQAPGQGLEWMGSIIPEFGIANYAQKFQGRVTITADESTSTTYMELSSLRSEDTAVYYCARESGGYRDHRLDVWGQGTMVTVSS VL: EIVMTQSPATLSVSPGERATLSCRASQSVGSNLAWYQQKPGQAPRLLIYGASTRATGIPARFSGSGSGTEFTLTISSLQSEDFAVYYCQQYLLWPLTFGGGTKVEIKR
Cell Binding (FOB) [fold over background]: 1060

Binder: 31421 (antibody, V domains shown) VH: QVQLVQSGAEVKKPGASVKVSCKASGYTFFSYYMYWVRQAPGQGLEWMGVINPLGGGTSYAQKFQGRVTMTRDTSTSTVYMELSSLRSEDTAVYYCARGKREGGTEYLRHWGQGTLVTVSS VL: EIVLTQSPGTLSLSPGERATLSCKASESVSSSYLAWYQQKPGQAPRLLIYYASSRATGIPDRFSGSGSGTDFTLTISRLEPEDFAVYYCQQYHRRITFGGGTKVEIK
Cell Binding (FOB) [fold over background]: 1080

Binder: 31415 (antibody, human IgG4 S228P, kappa, V domains shown) VH: QVQLVQSGAEVKKPGASVKVSCKASGYTFTSYQMHWVRQAPGQGLEWMGRINPSGGSTWYAQKFQGRVTMTRDTSTSTVYMELSSLRSEDTAVYYCARGKREGGTEYLRSWGQGTLVTVSS VL: EIVLTQSPGTLSLSPGERATLSCRASQSVSSSYLAWYQQKPGQAPRLLIYGASSRATGIPDRFSGSGSGTDFTLTISRLEPEDFAVYYCQQYHSYITFGGGTKVEIKR
Cell Binding (FOB) [fold over background]: 1170

Continue with the binder presented below.
For this binder ( 27590 (antibody, V domains shown) VH: QVQLVQSGAEVKKPGSSVKVSCKASGGTFSNYAISWVRQAPGQGLEWMGGIIPIFGTANYAQKFQGRVTITADESTSTAYMELSSLRSEDTAVYYCARGPTVTATTSIGTHNWFDPWGQGTLVTVSS VL: EIVLTQSPATLSLSPGERATLSCRASQSVSSYLAWYQQKPGQAPRLLIYDASNRATGIPARFSGSGSGTDFTLTISSLEPEDFAVYYCQQRNFYPPTFGGGTKVEIK ), measured Cell Binding (FOB) is 33

FYI, the data here is from patent US20210403593A1.
